test system: MDA-MB-231; assay: NCI tumour cell line growth inhibition, 48 h
Activity calls are given as the source filed them. Rule as the data show it: active = GI50 up to about 1.1 µM and inactive = higher.
Result type: GI50

[[record]]
molecule = "O=C(/C=C/c1ccc(Cl)c(Cl)c1)CCN1CCN(CCC(=O)/C=C/c2ccc(Cl)c(Cl)c2)CC1"
measured = "25 µM (inactive)"

[[record]]
molecule = "CC(C)(S)C(N)C(=O)O (stereo unspecified)"
measured = "> 100 µM (inactive)"

[[record]]
molecule = "COc1c(O)cc2oc(-c3ccc(O)cc3)cc(=O)c2c1O"
measured = "74.5 µM (inactive)"

[[record]]
molecule = "Clc1cccc(Cl)c1/C=N/C12CC3CC(CC(C3)C1)C2"
measured = "> 10 µM (inactive)"

[[record]]
molecule = "COc1ccc2c(c1)CCN=C2c1ccccc1CCCCl"
measured = "19 µM (inactive)"


Turning now to a further record.
Give GI50 for the following molecule: Nn1c(SCC(=O)O)nc2ccccc2c1=O > 100 µM (inactive)

* * *

system: U-251; test: NCI tumour cell line growth inhibition, 48 h
Calls of active or inactive are those of the source. Rule as the data show it: active = GI50 up to about 1.1 µM and inactive = higher.
Hi! Could you answer with just one of these? true (1) = active, false (0) = inactive

[[record]]
compound = "CC(=O)OCC1=C(C)C[C@H]([C@@H](COC(C)=O)C2CCC3C4C[C@H]5O[C@]56CC=CC(=O)[C@]6(C)C4CC[C@@]32C)OC1=O (stereo not given in full)"
group_label = "true (1)"


Lab note: next compound to report on.
I would be grateful if you could indicate the recorded call for C1=CC(N(c2ccccc2)C2C=CCCC2)CCC1 (stereo not given) . false (0)

* * *

Let's go through some recorded GI50 values for HCT-15 together.
# output: bare number, implied unit µM

Here is how some molecules turned out for GI50.
[[record]]
chemical_string = "COc1ccc2nc3cc([N+](=O)[O-])ccc3c(Nc3ccc(S(=O)(=O)NC(C)=O)cc3)c2c1"
result_type = "GI50"
measured = 71.1

[[record]]
chemical_string = "O=C(c1ccccc1)c1ccc(C(c2c(O)c3ccccc3oc2=O)c2c(O)c3ccccc3oc2=O)cc1"
result_type = "GI50"
measured = 30.5

[[record]]
chemical_string = "O=C(OCc1ccccc1)N1CCN(C(=O)OCc2ccccc2)CCN(C(=O)OCc2ccccc2)CCN(C(=O)OCc2ccccc2)CCN(C(=O)OCc2ccccc2)CC1"
result_type = "GI50"
measured = 46.8


Alright, here's another molecule for you.
// fetch GI50; item: COc1ccc(C[C@@H](CO)NC2=C(C#N)CCC2)cc1 ; system: HCT-15 40.4

* * *

tested on: SK-MEL-28; test: NCI tumour cell line growth inhibition, 48 h
Activity calls are given as the source filed them. Rule as the data show it: active = GI50 up to about 1.1 µM and inactive = higher.
Result type: GI50

[[record]]
compound = "O=[N+]([O-])c1nccn1CC(O)c1ccc(F)cc1 (stereo not drawn)"
measured = "> 100 µM (inactive)"

[[record]]
compound = "O=C(COc1ccc2c(=O)cc(-c3ccc(Cl)cc3)oc2c1)N1CCN(c2ccccc2)CC1"
measured = "> 100 µM (inactive)"


Given CSc1nc(-c2ccccc2)c2c(n1)-c1ccccc1CC2 , report its GI50 on SK-MEL-28. > 100 µM (inactive)

* * *

tested on: RPMI-8226; test: NCI tumour cell line growth inhibition, 48 h
Calls of active or inactive are those of the source. Rule as the data show it: active = GI50 up to about 1.1 µM and inactive = higher.
Write down the outcome that applies. Available outcomes: yes for active, no for inactive

Look up the recorded call for CCOC(CN(C)C(=S)Nc1cccc2ccccc12)OCC in this test. no

How was CCCCCCCCCCCC(=O)OC[C@@H](C[As](=O)(O)O)OC(=O)CCCCCCCCCCC classified in this test? no

Please let me know the test result on file for CS(=N)(=O)CCC(N)P(=O)(O)O (stereo unspecified) . no

Given O=C1c2ccccc2C(=O)c2nc(-c3ccccc3)c(-c3ccccc3)nc21 , state the outcome it received in this test. no

Hello, I am checking results. What call was entered for Cc1ccc([S+]([O-])c2cccs2)cc1 (stereo unspecified) ? no

Could you kindly confirm the outcome this assay logged for CCOC(=O)C1=C(c2ccccc2)NC(c2ccccc2)=C(C(=O)OCC)c2c1c(=O)cc[nH]c2=O ? no
